# Measured on: T1, human integrin αvβ5 (human, UniProt P06756 31-992; P18084 24-719)
# T1 construct: soluble analyte in SPR at 30, 100, 300 and 1,000 nM in HEPES buffer with 5 mM magnesium chloride; heterodimer of an alpha and a beta chain
# Method notes: SPR, Biacore 3000, peptide immobilised on CM5 chip, integrin 30-1000 nM flowed; grade A = dissociation constant 50 nM or less
Bridge positions count the residues as written; N and C are the ends. Square brackets hold non-standard residues; d marks the D form. Ends that are not written are not given here. COCH2 = acetyl group that carries the bridge; hCys = N[C@@H](CCS)C(=O)O; Orn = NCCC[C@H](N)C(=O)O

{"Binder": "{CH2CO}-E[hCys]RGDK(COCH2)F[hCys]KKK (thioether 2-6, N-8) [Cyclic peptide 30]", "dissociation constant": "< 50 nM"}
{"Binder": "{CH2CO}-V[hCys]RGDK(COCH2)F[hCys]KKK (thioether 2-6, N-8) [Cyclic peptide 28]", "dissociation constant": "< 50 nM"}
{"Binder": "{CH2CO}-E[Orn](COCH2)RGD[hCys]F[hCys]KKK (thioether 2-6, N-8) [Cyclic peptide 40]", "dissociation constant": "< 50 nM"}
{"Binder": "{CH2CO}-T[hCys]RGDK(COCH2)F[hCys]KKK (thioether 2-6, N-8) [Cyclic peptide 27]", "dissociation constant": "< 50 nM"}
{"Binder": "{CH2CO}-D[hCys]RGDK(COCH2)F[hCys]AKKK (thioether 2-6, N-8) [Cyclic peptide 45]", "dissociation constant": "< 50 nM"}
{"Binder": "ACDCRGDCFCGKKK (disulfide 2-10, 4-8, bicyclic comparative peptide; all residues L; immobilised on CM5 chip through amino groups) [Cyclic peptide 49]", "dissociation constant": "≤ 50 nM"}
{"Binder": "{CH2CO}-D[hCys]RGD[Orn](COCH2)F[hCys]KKK (thioether 2-6, N-8) [Cyclic peptide 42]", "dissociation constant": "< 50 nM"}
{"Binder": "{CH2CO}-KCRGDCFCKKK (disulfide 2-6; thioether N-8, bicyclic comparative peptide; all residues L; immobilised on CM5 chip through amino groups) [Cyclic peptide 48]", "dissociation constant": "≤ 50 nM"}
{"Binder": "{CH2CO}-D[Orn]RGD[hCys]F[hCys]KKK (thioether N-8; bridge 2-6; not fully specified (residue 2, bridges)) [Cyclic peptide 39]", "dissociation constant": "< 50 nM"}
{"Binder": "{CH2CO}-I[hCys]RGDK(COCH2)F[hCys]AKKK (thioether 2-6, N-8) [Cyclic peptide 35]", "dissociation constant": "< 50 nM"}
{"Binder": "{CH2CO}-V[Orn](COCH2)RGD[hCys]F[hCys]KKK (thioether 2-6, N-8) [Cyclic peptide 38]", "dissociation constant": "< 50 nM"}
{"Binder": "{CH2CO}-E[hCys]RGD[Orn](COCH2)F[hCys]KKK (thioether 2-6, N-8) [Cyclic peptide 43]", "dissociation constant": "< 50 nM"}
